Origin of measurements: patent US20240117038A1

- TARGET DESC: T1, cynomolgus CX3CR1 (cynomolgus monkey (Macaca fascicularis), UniProt P49238 1-355 (human entry))
- T1 construct: Overexpressed on CHO K1 cells; also called cyno CX3CR1; cyCX3CR1
- T1 chain: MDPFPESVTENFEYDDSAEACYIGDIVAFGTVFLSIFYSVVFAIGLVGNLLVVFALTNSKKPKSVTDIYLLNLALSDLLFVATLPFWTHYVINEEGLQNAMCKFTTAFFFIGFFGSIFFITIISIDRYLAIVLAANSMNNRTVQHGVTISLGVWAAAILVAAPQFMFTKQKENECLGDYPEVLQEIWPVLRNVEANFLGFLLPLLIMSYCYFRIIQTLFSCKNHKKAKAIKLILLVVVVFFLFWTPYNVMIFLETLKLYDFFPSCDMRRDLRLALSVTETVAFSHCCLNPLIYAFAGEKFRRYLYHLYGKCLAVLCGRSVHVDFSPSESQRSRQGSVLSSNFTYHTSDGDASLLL
- ASSAY OVERVIEW: competition flow cytometry vs soluble huCX3CL1-AF647 on CHO K1 cyCX3CR1 cells, 30 uM HSA
Measured IC50 by item
Supply the numeric figure in nM, leaving out any unit text.

# BINDER, IC50 / nM
data = [
    ("A041600026 (VHH, Trivalent ISVD construct; also called 66B02_SO (E1D)-20GS-ALB23002-20GS-66B02_SO-A) DVQLVESGGGSVQPGGSLRLSCAASGSIFSSTAMAWYRQAPGKRRDLVAAINTVGVTKYADSVKGRFTISRDNAKNTVYLQMNSLRPEDTALYYCTSDPRRGWDTRYWGQGTLVTVSSGGGGSGGGGSGGGGSGGGGSEVQLVESGGGVVQPGGSLRLSCAASGFTFRSFGMSWVRQAPGKGPEWVSSISGSGSDTLYADSVKGRFTISRDNSKNTLYLQMNSLRPEDTALYYCTIGGSLSRSSQGTLVTVSSGGGGSGGGGSGGGGSGGGGSEVQLVESGGGSVQPGGSLRLSCAASGSIFSSTAMAWYRQAPGKRRDLVAAINTVGVTKYADSVKGRFTISRDNAKNTVYLQMNSLRPEDTALYYCTSDPRRGWDTRYWGQGTLVTVSSA", 1.2),
    ("A041600011 (VHH, Trivalent ISVD construct (two anti-CX3CR1 ISVDs, one anti-albumin ISVD), C-terminal alanine included in the entry; also called 66B02_SO (E1D)-9GS-66B02_SO-9GS-ALB23002-A) DVQLVESGGGSVQPGGSLRLSCAASGSIFSSTAMAWYRQAPGKRRDLVAAINTVGVTKYADSVKGRFTISRDNAKNTVYLQMNSLRPEDTALYYCTSDPRRGWDTRYWGQGTLVTVSSGGGGSGGGSEVQLVESGGGSVQPGGSLRLSCAASGSIFSSTAMAWYRQAPGKRRDLVAAINTVGVTKYADSVKGRFTISRDNAKNTVYLQMNSLRPEDTALYYCTSDPRRGWDTRYWGQGTLVTVSSGGGGSGGGSEVQLVESGGGVVQPGGSLRLSCAASGFTFRSFGMSWVRQAPGKGPEWVSSISGSGSDTLYADSVKGRFTISRDNSKNTLYLQMNSLRPEDTALYYCTIGGSLSRSSQGTLVTVSSA", 1.2),
]

Note IC50 for the binder shown: A041600035 (VHH, Trivalent ISVD construct (two anti-CX3CR1 ISVDs, one anti-albumin ISVD), C-terminal alanine included in the entry; also called 54A12_SO (E1D)-9GS-54A12_SO-9GS-ALB23002-A) DVQLVESGGGSVQPGGSLRLSCAASGSIFSSTAMAWYRQAPGKQRDLVAVISTVGITKYADSVKGRFTISRDNAKNTVYLQMNSLRPEDTALYYCTSDARRGWDTRYWGQGTLVTVSSGGGGSGGGSEVQLVESGGGSVQPGGSLRLSCAASGSIFSSTAMAWYRQAPGKQRDLVAVISTVGITKYADSVKGRFTISRDNAKNTVYLQMNSLRPEDTALYYCTSDARRGWDTRYWGQGTLVTVSSGGGGSGGGSEVQLVESGGGVVQPGGSLRLSCAASGFTFRSFGMSWVRQAPGKGPEWVSSISGSGSDTLYADSVKGRFTISRDNSKNTLYLQMNSLRPEDTALYYCTIGGSLSRSSQGTLVTVSSA
1.1
